System: Homo sapiens
method_description: Drug level in osteoporotic patient at 45 […] administered daily
Assay type: ADME, organism-based
reported_conditions: in vivo, read-out: Drug uptake
measured_metric: concentration

Problem: State the recorded concentration for this entry: CC(C)=CCC/C(C)=C/CC/C(C)=C/CC/C(C)=C/CC1=C(C)C(=O)c2ccccc2C1=O [MENATETRENONE]
Result: 1000 nM
